Target: Delta-type opioid receptor (Rattus norvegicus, UniProt P33533)
Sequence (P33533 whole entry): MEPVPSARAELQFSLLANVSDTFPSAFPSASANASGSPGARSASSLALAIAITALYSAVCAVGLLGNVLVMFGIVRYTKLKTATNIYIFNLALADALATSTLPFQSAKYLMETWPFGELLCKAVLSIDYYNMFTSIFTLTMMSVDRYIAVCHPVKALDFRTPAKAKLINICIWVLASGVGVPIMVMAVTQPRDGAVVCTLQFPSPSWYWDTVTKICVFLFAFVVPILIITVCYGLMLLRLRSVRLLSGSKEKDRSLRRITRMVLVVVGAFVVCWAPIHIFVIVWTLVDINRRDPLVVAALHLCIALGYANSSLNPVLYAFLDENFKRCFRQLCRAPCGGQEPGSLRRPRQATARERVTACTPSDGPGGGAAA
Test: Displacement of [3H]DSLET from delta opioid receptor in rat brain membrane
Measured endpoint: Ki (nM)
Record the value in nM, omitting the unit from your answer.

Data request: Would you mind telling me what Ki value was observed for Cc1cc(O)cc(C)c1C[C@H](N)C(=O)N1CCC[C@H]1C(=O)N[C@@H](Cc1ccccc1)C(=O)N[C@H](Cc1cccc2ccccc12)C(N)=O ?
Data returned: 27.1

###

Biological target: Mu-type opioid receptor (Cavia porcellus) (UniProt P97266)
Sequence (P97266 whole entry): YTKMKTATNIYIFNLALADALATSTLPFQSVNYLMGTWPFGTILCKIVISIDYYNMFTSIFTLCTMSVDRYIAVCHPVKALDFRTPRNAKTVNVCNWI
Experiment: Antagonist activity at mu opioid receptor by inhibition of TAPP-induced muscle contraction in guinea pig ileum
Assay type: functional, tissue-based
Residues, ends and D or L forms follow the SMILES beside them.
Measured endpoint: Ke (nM)
Record the value in nM, omitting the unit from your answer.

Compound	Target of assay	Ke (nM)
Cc1cc(O)cc(C)c1C[C@H](N)C(=O)N1CCC[C@H]1C(=O)N[C@@H](Cc1ccccc1)C(=O)N[C@H](Cc1ccc2ccccc2c1)C(N)=O (HELM PEPTIDE1{[Cc1cc(O)cc(C)c1C[C@H](N)C(=O)[*:2]].P.F.[O=C([C@@H](Cc1ccc2ccccc2c1)N[*:1])[*:2]].[am]}$$$$V2.0)	Mu-type opioid receptor (Cavia porcellus) (UniProt P97266)	5.86

Data request: Would you mind telling me what Ke value was observed for Cc1cc(C[C@H](N)C(=O)N2CCC[C@H]2C(=O)N[C@@H](Cc2ccccc2)C(=O)N[C@H](Cc2cccc3ccccc23)C(N)=O)cc(C)c1O ?
Data returned: 14.9

Data request: Would you mind telling me what Ke value was observed for NC(=O)[C@@H](Cc1cccc2ccccc12)NC(=O)[C@H](Cc1ccccc1)NC(=O)[C@@H]1CCCN1C(=O)[C@@H](N)Cc1ccc(O)cc1 ?
Data returned: 1250

Data request: Would you mind telling me what Ke value was observed for Cc1cc(C[C@H](N)C(=O)N2CCC[C@H]2C(=O)N[C@@H](Cc2c[nH]c3ccccc23)C(=O)N[C@H](Cc2ccc3ccccc3c2)C(N)=O)cc(C)c1O ?
Data returned: 8.27

Data request: Would you mind telling me what Ke value was observed for NC(=O)[C@@H](Cc1ccc2ccccc2c1)NC(=O)[C@H](Cc1ccccc1)NC(=O)[C@@H]1CCCN1C(=O)[C@@H](N)Cc1ccc(O)cc1 (HELM PEPTIDE1{Y.P.F.[O=C([C@@H](Cc1ccc2ccccc2c1)N[*:1])[*:2]].[am]}$$$$V2.0) ?
Data returned: 1260

###

Measured IC50, listed per entry for reference.
Molecular target: Mu-type opioid receptor (Cavia porcellus, UniProt P97266)
Assay: Agonist activity at mu opioid receptor by inhibition of electrically evoked muscle contraction in guinea pig ileum
Record the value in µM, omitting the unit from your answer.

Solved cases below.
Smiles input	IC50, µM
NC(=O)[C@@H](Cc1cccc2ccccc12)NC(=O)[C@H](Cc1c[nH]c2ccccc12)NC(=O)[C@@H]1CCCN1C(=O)[C@@H](N)Cc1ccc(O)cc1	4.18
Cc1cc(O)cc(C)c1C[C@H](N)C(=O)N1CCC[C@H]1C(=O)N[C@@H](Cc1c[nH]c2ccccc12)C(=O)N[C@H](Cc1cccc2ccccc12)C(N)=O	0.0158

Note: attention shifts to another entry.
Data request: Tell me reported IC50 for NC(=O)[C@@H](Cc1ccc2ccccc2c1)NC(=O)[C@H](Cc1c[nH]c2ccccc12)NC(=O)[C@@H]1CCCN1C(=O)[C@@H](N)Cc1ccc(O)cc1 , tested with Mu-type opioid receptor (Cavia porcellus, UniProt P97266).
Data returned: 3.47
